Molecular target: NUAK family SNF1-like kinase 1 (Homo sapiens)
Sequence (whole entry): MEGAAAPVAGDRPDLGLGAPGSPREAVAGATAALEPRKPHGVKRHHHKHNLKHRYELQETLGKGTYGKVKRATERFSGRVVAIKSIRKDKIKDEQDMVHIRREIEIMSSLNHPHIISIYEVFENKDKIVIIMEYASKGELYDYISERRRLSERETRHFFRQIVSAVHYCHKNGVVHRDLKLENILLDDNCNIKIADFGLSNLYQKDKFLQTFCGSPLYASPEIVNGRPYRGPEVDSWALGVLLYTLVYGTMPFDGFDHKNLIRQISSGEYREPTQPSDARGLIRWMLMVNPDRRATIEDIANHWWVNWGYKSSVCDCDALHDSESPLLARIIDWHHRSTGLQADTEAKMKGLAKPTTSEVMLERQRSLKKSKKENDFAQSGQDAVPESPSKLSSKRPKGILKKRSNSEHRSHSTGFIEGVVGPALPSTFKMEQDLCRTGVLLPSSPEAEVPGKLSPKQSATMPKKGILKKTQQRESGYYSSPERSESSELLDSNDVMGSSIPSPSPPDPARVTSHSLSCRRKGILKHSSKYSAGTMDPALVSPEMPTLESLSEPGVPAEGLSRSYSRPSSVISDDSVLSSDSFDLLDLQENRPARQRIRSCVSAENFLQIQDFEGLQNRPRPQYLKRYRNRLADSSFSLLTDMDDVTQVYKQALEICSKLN
Settings: at 1 µM
assay-endpoint: residual activity (%)
Express your answer in %, writing the number without its unit.

Below: 5 compounds and their reported residual activity.
INSERT INTO results (chemical_smiles, target, test_result) VALUES
  ('CC(=O)O/N=C1\C(=C2\C(=O)Nc3cc(Br)ccc32)Nc2ccccc21', 'NUAK family SNF1-like kinase 1 (Homo sapiens)', 56),
  ('COc1ccc(CNc2nc(N(CCO)CCO)nc3c2ncn3C(C)C)cc1', 'NUAK family SNF1-like kinase 1 (Homo sapiens)', 107),
  ('O=[N+]([O-])c1ccc(-c2nc(-c3ccc(F)cc3)c(-c3ccncc3)[nH]2)cc1', 'NUAK family SNF1-like kinase 1 (Homo sapiens)', 103),
  ('O=C1NC(=O)/C(=C/c2ccc3c(c2)OC(F)(F)O3)S1', 'NUAK family SNF1-like kinase 1 (Homo sapiens)', 91),
  ('c1ccc(-c2n[nH]c3c2oc2ccccc23)cc1', 'NUAK family SNF1-like kinase 1 (Homo sapiens)', 89);

Which measured residual activity value corresponds to `CNc1cc2c(Nc3cccc(Br)c3)ncnc2cn1` ?
100

Another compound to look at: `Cc1ccc(S(=O)(=O)/C=C/C#N)cc1`
109

Another compound to look at: `C[C@@H](N)[C@H]1CC[C@H](C(=O)Nc2ccncc2)CC1`
101

Another compound to look at: `Cn1cc(/C=C2\C(=O)Nc3ccc(S(N)(=O)=O)cc32)c2ccccc21`
18

Another compound to look at: `Cc1ccc(NC2=CC(=O)c3sc(C)nc3C2=O)cc1`
108

----------
molecular target: Tyrosine-protein kinase receptor UFO (Homo sapiens); details: at 1 µM
assay-endpoint: residual activity (%)
Express your answer in %, writing the number without its unit.

Which measured residual activity value corresponds to `Oc1n[nH]c2nnc(-c3c(-c4ccccc4)nn4ccccc34)cc12` ?
118

Another compound to look at: `N#C/C(=C(\N)Sc1ccc(N)cc1)c1ccccc1C(F)(F)F`
96

Another compound to look at: `O=C1Nc2ccc(Br)cc2/C1=C\c1cc2c([nH]1)CCCC2`
72

Another compound to look at: `Nc1ccc2ncnc(NCCc3ccc(Oc4ccccc4)cc3)c2c1`
72

Another compound to look at: `CC(=O)O/N=C1\C(=C2\C(=O)Nc3cc(Br)ccc32)Nc2ccccc21`
77

Another compound to look at: `Cc1cncc2cccc(S(=O)(=O)N3CCCN(C(=O)CN)C[C@H]3C)c12`
88

Another compound to look at: `O=C(Nc1cccc(Nc2cc(Nc3cccc(C(F)(F)F)c3)ncn2)c1)C1CC1`
102

Another compound to look at: `CC(C)n1cnc2/c(=N/c3cccc(Cl)c3)nc(NCCO)[nH]c21`
94

Another compound to look at: `Cc1nc(-c2ccccc2)c(-c2ccncc2)o1`
112

----------
target: Receptor-type tyrosine-protein kinase FLT3 (Homo sapiens); conditions: at 1 µM
Classification field: TRUE = residual activity at or over 80%; FALSE = residual activity under 80%.

Worked set:
INSERT INTO assay_data (chemical_smiles, label) VALUES
  ('O=c1cc(-c2cccc3c2Sc2ccccc2S3)oc(N2CCOCC2)c1', 'TRUE'),
  ('Cn1cc(/C=C2\C(=O)Nc3ccc(S(N)(=O)=O)cc32)c2ccccc21', 'FALSE'),
  ('CCN(CC)CCCCN1c2ccccc2Oc2ccc(Cl)cc21', 'TRUE');

Textbook exercise: given the entry `O=Nc1c(-c2c(O)[nH]c3ccccc23)[nH]c2ccccc12` , state whether its residual activity is greater than or equal to 80%.
FALSE

Another compound to look at: `Cn1cnc2cc3c(Nc4cccc(Br)c4)ncnc3cc21`
TRUE

Another compound to look at: `CC(=O)c1ccc(N2CCOCC2)cc1O`
TRUE

----------
Item-by-item account of residual activity
target: Serine/threonine-protein kinase TAO3 (Homo sapiens); details: at 10 µM
Express your answer in %, writing the number without its unit.

Below: 2 compounds and their reported residual activity.
INSERT INTO results (chemical_smiles, unit_name, test_result) VALUES
  ('CC(=O)c1ccc(N2CCOCC2)cc1O', '%', 91),
  ('CNc1cc2c(Nc3cccc(Br)c3)ncnc2cn1', '%', 90);

Which measured residual activity value corresponds to `N#C/C(=C(\N)Sc1ccc(N)cc1)c1ccccc1C(F)(F)F` ?
91

Another compound to look at: `Oc1n[nH]c2nnc(-c3c(-c4ccccc4)nn4ccccc34)cc12`
90

Another compound to look at: `Ic1cccc(CSc2nnc(-c3ccncc3)o2)c1`
89

Another compound to look at: `O=C1c2ccccc2-[n+]2ccc3c([nH]c4ccccc43)c21`
90

----------
biological target: Glycogen synthase kinase-3 alpha (Homo sapiens); settings: at 1 µM
Values of residual activity strictly less than 90% map to MET, and values of at least 90% map to NOT MET.

Please check: residual activity for `O=C1NC(=O)c2cc(Nc3ccc(F)cc3)c(Nc3ccc(F)cc3)cc21` , strictly under 90% or not?
MET

Another compound to look at: `CCOc1cc2ncnc(Nc3cccc(Br)c3)c2cc1OCC`
NOT MET

Another compound to look at: `O=C1Nc2ccc(Br)cc2/C1=C\c1cc2c([nH]1)CCCC2`
NOT MET

----------
target: cGMP-dependent protein kinase 1 (Homo sapiens) (UniProt Q13976); settings: at 10 µM
Sequence (Q13976 whole entry): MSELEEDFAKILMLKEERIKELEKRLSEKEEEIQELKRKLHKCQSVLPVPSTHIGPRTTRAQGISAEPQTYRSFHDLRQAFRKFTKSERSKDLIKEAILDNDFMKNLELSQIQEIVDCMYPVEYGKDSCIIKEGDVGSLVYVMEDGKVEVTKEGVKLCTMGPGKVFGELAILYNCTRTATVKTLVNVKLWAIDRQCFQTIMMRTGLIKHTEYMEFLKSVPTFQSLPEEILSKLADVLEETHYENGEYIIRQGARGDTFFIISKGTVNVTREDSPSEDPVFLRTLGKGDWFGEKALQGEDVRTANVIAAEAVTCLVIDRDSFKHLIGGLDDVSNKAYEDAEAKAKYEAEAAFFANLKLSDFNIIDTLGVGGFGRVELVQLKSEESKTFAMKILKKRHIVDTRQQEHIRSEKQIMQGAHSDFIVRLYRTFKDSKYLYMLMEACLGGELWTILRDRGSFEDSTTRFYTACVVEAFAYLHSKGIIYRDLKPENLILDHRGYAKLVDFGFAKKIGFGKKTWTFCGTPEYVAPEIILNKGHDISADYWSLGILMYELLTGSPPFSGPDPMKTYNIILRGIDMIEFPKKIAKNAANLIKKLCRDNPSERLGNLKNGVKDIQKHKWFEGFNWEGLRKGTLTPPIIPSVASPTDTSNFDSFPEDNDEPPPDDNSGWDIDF
assay-endpoint: residual activity (%)
Express your answer in %, writing the number without its unit.

INSERT INTO measurements (chemical_smiles, assay_endpoint, test_result) VALUES
  ('C[C@@H](N)[C@H]1CC[C@H](C(=O)Nc2ccncc2)CC1', 'residual activity', 31);

// lookup residual activity | system=cGMP-dependent protein kinase 1 (Homo sapiens) (UniProt Q13976) | key= `CN(C)CCCn1cc(C2=C(c3c[nH]c4ccccc34)C(=O)NC2=O)c2ccccc21`
14

Another molecule to look at: `CCOc1cc2ncnc(Nc3cccc(Br)c3)c2cc1OCC`
91

----------
biological target: Tyrosine-protein kinase Blk (Homo sapiens); conditions: at 1 µM
assay-endpoint: residual activity (%)
Express your answer in %, writing the number without its unit.

Below: 5 molecules and their reported residual activity.
INSERT INTO assay_data (molecule, assay_endpoint, test_result) VALUES
  ('Nc1nc(Nc2ccc(S(N)(=O)=O)cc2)nn1C(=S)Nc1c(F)cccc1F', 'residual activity', 7),
  ('COc1cc2ncnc(Nc3ccc(Oc4ccccc4)cc3)c2cc1OC', 'residual activity', 0),
  ('O=C(O)c1ccc2c3c1cccc3c(=O)n1c3ccccc3nc21', 'residual activity', 99),
  ('NC(=O)c1ccc2[nH]c(-c3ccc(Oc4ccc(Cl)cc4)cc3)nc2c1', 'residual activity', 103),
  ('COc1cc2ncnc(N3CCN(C(=O)Nc4ccc(Oc5ccccc5)cc4)CC3)c2cc1OC', 'residual activity', 100);

Which measured residual activity value corresponds to `O=[N+]([O-])c1ccc(-c2nc(-c3ccc(F)cc3)c(-c3ccncc3)[nH]2)cc1` ?
110

Another molecule to look at: `Cn1cnc2cc3c(Nc4cccc(Br)c4)ncnc3cc21`
50

Another molecule to look at: `COc1cc2ncnc(Nc3ccc(O)c(Br)c3)c2cc1OC`
21

----------
Item-by-item account of residual activity
target: Tyrosine-protein kinase TXK (Homo sapiens) (UniProt P42681); conditions: at 1 µM
Sequence (P42681 whole entry): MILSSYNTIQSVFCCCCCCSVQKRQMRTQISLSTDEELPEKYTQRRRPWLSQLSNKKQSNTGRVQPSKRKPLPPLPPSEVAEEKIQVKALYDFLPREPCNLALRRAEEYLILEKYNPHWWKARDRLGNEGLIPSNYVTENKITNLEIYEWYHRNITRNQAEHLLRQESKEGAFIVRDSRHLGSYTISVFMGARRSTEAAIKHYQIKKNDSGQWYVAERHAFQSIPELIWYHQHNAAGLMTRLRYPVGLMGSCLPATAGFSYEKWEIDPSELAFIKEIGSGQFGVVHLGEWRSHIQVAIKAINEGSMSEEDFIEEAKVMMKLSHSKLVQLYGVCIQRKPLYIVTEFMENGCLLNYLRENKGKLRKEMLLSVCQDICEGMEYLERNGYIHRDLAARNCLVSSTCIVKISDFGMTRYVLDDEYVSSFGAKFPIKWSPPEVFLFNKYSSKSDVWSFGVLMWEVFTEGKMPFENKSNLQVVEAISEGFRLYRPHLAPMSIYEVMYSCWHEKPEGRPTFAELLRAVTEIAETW
Express your answer in %, writing the number without its unit.

Which measured residual activity value corresponds to `O=C1NC(=O)/C(=C\c2ccc3nccnc3c2)S1` ?
100

Another compound to look at: `Cc1nc2cc3nc(-c4cccs4)cnc3cc2n1C`
108

Another compound to look at: `Oc1ccc(-c2nc(-c3ccc(F)cc3)c(-c3ccncc3)[nH]2)cc1`
78

Another compound to look at: `Ic1cccc(CSc2nnc(-c3ccncc3)o2)c1`
75
